Provenance of the data: patent US20170183390A1

Measured on: T1, soluble αVβ6 headpiece, disulfide-linked (αV headpiece residues 1-594 with M400C); β6 headpiece residues 1-474 … (UniProt P06756 31-624; P18564 18-491, Interchain disulfide between αV Cys-400 and β6 Cys-270.)
T1 alpha: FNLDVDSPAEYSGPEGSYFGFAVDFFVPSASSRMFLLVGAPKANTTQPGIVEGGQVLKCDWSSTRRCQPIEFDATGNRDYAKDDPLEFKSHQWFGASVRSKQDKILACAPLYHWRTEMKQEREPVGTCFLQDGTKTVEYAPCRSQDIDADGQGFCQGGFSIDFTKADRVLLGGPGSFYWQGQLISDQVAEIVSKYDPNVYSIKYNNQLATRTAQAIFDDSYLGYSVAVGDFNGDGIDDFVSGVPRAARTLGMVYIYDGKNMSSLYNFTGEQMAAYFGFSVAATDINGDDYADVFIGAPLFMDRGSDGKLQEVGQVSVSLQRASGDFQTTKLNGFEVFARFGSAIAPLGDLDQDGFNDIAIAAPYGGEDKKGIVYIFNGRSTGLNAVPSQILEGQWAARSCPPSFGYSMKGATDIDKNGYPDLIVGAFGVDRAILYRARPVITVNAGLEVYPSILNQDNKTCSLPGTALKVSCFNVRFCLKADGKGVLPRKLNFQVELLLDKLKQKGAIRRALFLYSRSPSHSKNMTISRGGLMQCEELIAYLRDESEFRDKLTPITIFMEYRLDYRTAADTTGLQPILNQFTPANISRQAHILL
T1 beta: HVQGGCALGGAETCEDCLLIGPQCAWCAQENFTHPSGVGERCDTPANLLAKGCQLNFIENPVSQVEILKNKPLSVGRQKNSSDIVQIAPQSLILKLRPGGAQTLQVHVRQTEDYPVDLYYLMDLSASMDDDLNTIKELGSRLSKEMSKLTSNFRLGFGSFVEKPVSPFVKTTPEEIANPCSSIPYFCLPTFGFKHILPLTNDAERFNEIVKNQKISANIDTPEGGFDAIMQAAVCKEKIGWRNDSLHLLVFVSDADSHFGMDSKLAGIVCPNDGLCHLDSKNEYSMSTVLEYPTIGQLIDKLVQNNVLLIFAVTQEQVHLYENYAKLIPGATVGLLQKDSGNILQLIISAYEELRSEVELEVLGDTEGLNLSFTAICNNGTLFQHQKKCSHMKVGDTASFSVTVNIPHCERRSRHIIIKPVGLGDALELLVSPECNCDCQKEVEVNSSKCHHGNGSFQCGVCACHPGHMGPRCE
Procedure summary: fluorescence anisotropy; pH 9.0
Ends that are not written are not given here. * marks the point of attachment. FITC = O=C1OC2(c3ccc(O)cc3Oc3cc(O)ccc32)c2ccc(NC(=S)*)cc21
Quantity kind: Kd
Reply with a number, then the unit it belongs to.

// query State the recorded Kd for this entry: {FITC}-GRGDLGRL (also called the probe) [FITC-GRGDLGRL (FITC-pro-TGF-β3 peptide, fluorescence probe)]
// result 27.4 nM
